Consider the following molecules and their measured EC50 readings.
Target: h FPR2 (Homo sapiens)
Sequence (P25090 whole entry): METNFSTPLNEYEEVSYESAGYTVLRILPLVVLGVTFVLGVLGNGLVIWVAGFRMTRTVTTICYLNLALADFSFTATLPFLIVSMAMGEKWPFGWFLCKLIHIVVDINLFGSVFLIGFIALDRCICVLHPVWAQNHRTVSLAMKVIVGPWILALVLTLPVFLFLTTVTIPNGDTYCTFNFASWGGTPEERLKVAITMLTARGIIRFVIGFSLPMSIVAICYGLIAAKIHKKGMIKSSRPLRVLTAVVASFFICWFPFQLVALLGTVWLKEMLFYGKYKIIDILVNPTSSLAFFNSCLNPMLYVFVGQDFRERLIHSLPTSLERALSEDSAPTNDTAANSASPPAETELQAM
Assay: Agonistic activity in hFPR2-Aq-CHO cells (FLIPR Calcium 5 fluorescence assay)
Conditions: 11 point half log dilution, final assay concentration from 10µM
Experimental: After washing, the cells are plated at 10,000 cells per well in 40 µL complete medium in a 384-well sterile clear bottom black plate and incubated in a 5% CO2 incubator at 37°C for 18 hours. […] Compounds are finally added to the respective wells of the cell plate (final assay concentration 10 µM to 100 pM) using the FLIPR (e.g. FLIPR-Tetra, Molecular Devices) and fluorescence readings are captured for 5 minutes. […] The EC50 values of the compounds can be determined using e.g. Graph pad Prism software. […]
Please respond with the number in nM and leave the unit unwritten.

Consider the worked cases shown below.
>>> reported("Cc1ccc(N2CC[C@@H](NC(=O)Nc3cc(C)ns3)[C@H](c3ccc(Cl)cn3)C2)nn1 (relative stereo)")
11
>>> reported("COc1ccc([C@@H]2CN(CC(F)F)CC[C@H]2NC(=O)Nc2ccccc2)nc1 (relative stereo)")
3

Q: Lookup: EC50 / h FPR2 (Homo sapiens) / COc1ccc([C@@H]2CN(C(=O)c3ccc(C(F)(F)F)nc3)CC[C@H]2NC(=O)Nc2ccc(Cl)cc2)nc1 (single isomer, unassigned) [Ex-101]
A: 0.11

###

Consider the following compounds and their measured pEC50 readings.
target: h FPR2 (Homo sapiens); test: Agonistic activity in hFPR2-Aq-CHO cells (FLIPR Calcium 5 fluorescence assay); settings: 11 point half log dilution, final assay concentration from 10µM
Value format note: pEC50 is -log10 of concentration (mol/L); just state the number.

Consider the worked cases shown below.
>>> reported("Cc1cc(NC(=O)N[C@@H]2CCN(c3ccncn3)C[C@H]2c2ccc(Cl)cn2)sn1 (single isomer, unassigned) [Ex-16]")
9.05
>>> reported("COc1cnc([C@@H]2CN(CCS(C)(=O)=O)CC[C@H]2NC(=O)Nc2ccc(Cl)cc2)c(F)c1 (relative stereo)")
9.15
>>> reported("Cc1cc(NC(=O)N[C@@H]2CCN(c3cc(C(F)(F)F)ncn3)C[C@H]2c2ccc(Cl)cn2)sn1 (relative stereo)")
8.22
>>> reported("COc1ccc([C@@H]2CN(CC3(O)COC3)CC[C@H]2NC(=O)Nc2ccc(Cl)cc2)nc1 (relative stereo)")
8.89
>>> reported("COCCCN1CC[C@@H](NC(=O)Nc2ccc(Cl)cc2)[C@H](c2ncc(OC)cc2F)C1 (relative stereo)")
9.00
>>> reported("COc1ccc([C@@H]2CN(C(=O)c3ccc(C(F)(F)F)nc3)CC[C@H]2NC(=O)Nc2ccc(C#N)cc2)nc1 (relative stereo)")
8.92

Q: Lookup: pEC50 / h FPR2 (Homo sapiens) / COc1ccc([C@@H]2CN(CC(C)(C)O)CC[C@H]2NC(=O)Nc2ccc(Cl)cc2)nc1 (single isomer, unassigned) [Ex-179]
A: 9.15
